Biological target: Tyrosine-protein phosphatase non-receptor type 1 (Homo sapiens)
Experiment: Inhibition of PTP1B (unknown origin) at 5 ug/ml
OBSERVABLE: inhibition (%)

Cc1ccc(C(=O)Nc2nnc(-c3ccc(Oc4ccc([N+](=O)[O-])cc4[N+](=O)[O-])cc3)s2)cc1
85.3
COc1ccc(C(=O)Nc2nnc(-c3ccc(Oc4ccc([N+](=O)[O-])cc4)cc3)s2)cc1
72.6
COc1ccccc1C(=O)Nc1nnc(-c2ccc(Oc3ccc([N+](=O)[O-])cc3)cc2)s1
84.8
COc1ccc(C(=O)Nc2nnc(-c3ccc(Oc4ccc([N+](=O)[O-])cc4[N+](=O)[O-])cc3)s2)cc1
92.9
O=C(Nc1nnc(-c2ccc(Oc3ccc([N+](=O)[O-])cc3[N+](=O)[O-])cc2)s1)c1ccccc1[N+](=O)[O-]
87.4
